- System: PXR:RXRa (NR concentration 270 nM, RXRa partner concentration 90 nM)
- Experimental protocol: PBM binding z-score (relative to random genomic background probes); higher = stronger binding; sequences stand for … in GC…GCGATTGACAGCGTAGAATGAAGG
The label depends only on PBM binding z-score: rule met if it is at least 2, rule not met if it is smaller.

Query string: hey, is PBM binding z-score for this one >= 2? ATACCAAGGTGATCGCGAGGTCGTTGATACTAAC
Result string: rule met

Query string: hey, is PBM binding z-score for this one >= 2? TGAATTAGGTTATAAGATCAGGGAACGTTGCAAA
Result string: rule not met

Query string: hey, is PBM binding z-score for this one >= 2? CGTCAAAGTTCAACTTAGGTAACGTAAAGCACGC
Result string: rule met

Query string: hey, is PBM binding z-score for this one >= 2? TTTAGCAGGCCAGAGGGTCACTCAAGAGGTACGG
Result string: rule not met

Query string: hey, is PBM binding z-score for this one >= 2? TCCTATAGGTAAATGCTAGGTGAAAGTCCGATCT
Result string: rule not met

Query string: hey, is PBM binding z-score for this one >= 2? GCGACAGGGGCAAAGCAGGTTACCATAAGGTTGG
Result string: rule not met

Query string: hey, is PBM binding z-score for this one >= 2? CCTACTGGGTCAAAAAGGTCATTGATGCCGATAA
Result string: rule met

Query string: hey, is PBM binding z-score for this one >= 2? CGAACGAGGGCATGAGTTGGTAGCAAATGCCGAT
Result string: rule not met

Query string: hey, is PBM binding z-score for this one >= 2? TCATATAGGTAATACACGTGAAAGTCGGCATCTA
Result string: rule not met

Query string: hey, is PBM binding z-score for this one >= 2? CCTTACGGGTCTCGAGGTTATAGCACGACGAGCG
Result string: rule not met

----------
- Tested on: LXRa homodimer (NR concentration 270 nM)
- Experimental protocol: PBM binding z-score (relative to random genomic background probes); higher = stronger binding; sequences stand for … in GC…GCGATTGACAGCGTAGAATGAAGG
The label depends only on PBM binding z-score: YES if it is at least 0.3, NO if it is smaller.

Examples from the recorded data:
[[record]]
macromolecule_sequence = "GATACCGGGTCAAGGCCAGAGTACGCGTATTGAT"
qualitative_label = "NO"

[[record]]
macromolecule_sequence = "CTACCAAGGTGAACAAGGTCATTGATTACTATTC"
qualitative_label = "YES"

[[record]]
macromolecule_sequence = "ACTATTAGTTGAGATGAGGGCAACCGATAGGTTG"
qualitative_label = "YES"

[[record]]
macromolecule_sequence = "CTACCAAGGTGAACAAGGTCGTTGATTACTATTC"
qualitative_label = "NO"

[[record]]
macromolecule_sequence = "AATACAAGGTCACTAGGCCAGAGTAGGTACGAAT"
qualitative_label = "YES"


Query string: hey, is PBM binding z-score for this one >= 0.3? GGAACGAGGGCAAAGTTGATAGTATCTGTCGACG
Result string: NO

Query string: hey, is PBM binding z-score for this one >= 0.3? ATCTCTAGGTAAAGTTAGTTCAGTGAATGCAAAT
Result string: YES

Query string: hey, is PBM binding z-score for this one >= 0.3? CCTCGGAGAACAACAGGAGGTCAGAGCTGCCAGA
Result string: YES

----------
- System: PPARg:RXRa 30nM:10nM, anti-RXR (NR concentration 30 nM, RXRa partner concentration 10 nM)
- Experimental protocol: PBM binding z-score (relative to random genomic background probes); higher = stronger binding; sequences stand for … in GC…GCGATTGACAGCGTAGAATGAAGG
Field: PBM binding z-score. Provide a value for each of the sequences that follow.

A selection of reference data follows.
[[record]]
macromolecule_sequence = "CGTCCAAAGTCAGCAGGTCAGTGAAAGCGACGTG"
value = -0.634

[[record]]
macromolecule_sequence = "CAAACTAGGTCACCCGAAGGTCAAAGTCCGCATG"
value = 5.77

[[record]]
macromolecule_sequence = "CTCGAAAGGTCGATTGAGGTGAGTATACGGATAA"
value = 0.642

[[record]]
macromolecule_sequence = "CCTAGTTGGTCAGGAGCTCACACACCGGATATGA"
value = -0.291

[[record]]
macromolecule_sequence = "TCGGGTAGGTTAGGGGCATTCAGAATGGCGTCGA"
value = 1.98


# batch size: 4; output PBM binding z-score per entry
1. ACTAACAGGCCAAGTTTGGGTCACTCAAACAAAG
2. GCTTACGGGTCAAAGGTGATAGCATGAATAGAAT
3. AGTCACAGTTCAGGACGAGGTAACGTAAAGCACG
4. ATATGTAGGTTAGCTGGGGTCATTCATACTAGGC

Result string:
-0.0822
7.83
0.403
3.12

----------
- Tested on: THRa:RXRa (NR concentration 90 nM, RXRa partner concentration 90 nM)
- Experimental protocol: PBM binding z-score (relative to random genomic background probes); higher = stronger binding; sequences stand for … in GC…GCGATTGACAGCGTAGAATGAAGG
The label depends only on PBM binding z-score: Condition met if it is at least 4, Condition not met if it is smaller.

Examples from the recorded data:
[[record]]
macromolecule_sequence = "GGAACGAGGGCAAGTTGATACCAGAGTTTGATGG"
qualitative_label = "Condition not met"

[[record]]
macromolecule_sequence = "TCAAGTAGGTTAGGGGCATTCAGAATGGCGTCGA"
qualitative_label = "Condition not met"


Query string: hey, is PBM binding z-score for this one >= 4? CCTGCTAGGTCATGGGCAGCTAATCTACAGTATG
Result string: Condition not met

Query string: hey, is PBM binding z-score for this one >= 4? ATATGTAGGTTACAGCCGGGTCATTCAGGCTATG
Result string: Condition not met

----------
- Tested on: FXR:RXRa (NR concentration 270 nM, RXRa partner concentration 90 nM)
- Experimental protocol: PBM binding z-score (relative to random genomic background probes); higher = stronger binding; sequences stand for … in GC…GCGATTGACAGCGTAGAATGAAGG
The label depends only on PBM binding z-score: YES if it is at least 2, NO if it is smaller.

[[record]]
macromolecule_sequence = "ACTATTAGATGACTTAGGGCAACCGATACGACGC"
qualitative_label = "NO"


Query string: hey, is PBM binding z-score for this one >= 2? CGGACGAGGGCATGAGTTGATAGCAAATGCCGAT
Result string: NO

Query string: hey, is PBM binding z-score for this one >= 2? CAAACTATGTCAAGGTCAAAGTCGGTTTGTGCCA
Result string: YES

Query string: hey, is PBM binding z-score for this one >= 2? GGATCGAGGGCAAAGTTGATAGCATCTGTCGACG
Result string: NO

Query string: hey, is PBM binding z-score for this one >= 2? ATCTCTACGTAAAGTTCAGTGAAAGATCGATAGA
Result string: NO

Query string: hey, is PBM binding z-score for this one >= 2? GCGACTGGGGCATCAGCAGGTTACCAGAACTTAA
Result string: NO

Query string: hey, is PBM binding z-score for this one >= 2? CGTCCAAGGTCAGCGAGGTCAGTGAATGCCGAGT
Result string: YES

Query string: hey, is PBM binding z-score for this one >= 2? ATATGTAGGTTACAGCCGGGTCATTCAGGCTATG
Result string: YES

----------
- Tested on: VDR homodimer (NR concentration 270 nM)
- Experimental protocol: PBM binding z-score (relative to random genomic background probes); higher = stronger binding; sequences stand for … in GC…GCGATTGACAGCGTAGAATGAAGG
The label depends only on PBM binding z-score: YES if it is at least 0.1, NO if it is smaller.

Examples from the recorded data:
[[record]]
macromolecule_sequence = "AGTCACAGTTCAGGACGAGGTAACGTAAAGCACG"
target_entity = "VDR homodimer (NR concentration 270 nM)"
qualitative_label = "YES"

[[record]]
macromolecule_sequence = "CGTCCAAGGTCAGCTGGTCAGTGAAAGCGACGTG"
target_entity = "VDR homodimer (NR concentration 270 nM)"
qualitative_label = "YES"

[[record]]
macromolecule_sequence = "TCTCGTAGATCAATAGAGGTTAAGAAAGTGCGCT"
target_entity = "VDR homodimer (NR concentration 270 nM)"
qualitative_label = "YES"

[[record]]
macromolecule_sequence = "ATCTCTAGGTAACCAAGTTAAGTGAATGCCGAAC"
target_entity = "VDR homodimer (NR concentration 270 nM)"
qualitative_label = "NO"

[[record]]
macromolecule_sequence = "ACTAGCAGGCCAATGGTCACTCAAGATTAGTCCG"
target_entity = "VDR homodimer (NR concentration 270 nM)"
qualitative_label = "NO"


Query string: hey, is PBM binding z-score for this one >= 0.1? TCTGCTAGGTCAACCATGGTCAGCTAATCTGCTA
Result string: NO

Query string: hey, is PBM binding z-score for this one >= 0.1? TCTTGTAGATCAACAGGAGGTTATGAAAGATCGA
Result string: NO
